These data points were gathered from ChEMBL document CHEMBL3232894.

experimentNotes: Elimination half-life in iv dosed rat
Assay type: ADME, organism-based
testSettings: in vivo, read-out: beta t1/2 (converted)
measuredEndpoint: half-life (h)

* C[C@H]1CC[C@H](n2c3cnccc3c3cnc(Nc4ccc5c(n4)CCN(C(=O)CO)C5)nc32)CC1 | 5.5

----------
Listed compounds paired with reported IC50
subjectOfTest: Cyclin-dependent kinase 1/cyclin B1 (Homo sapiens)
Sequence (P06493 whole entry): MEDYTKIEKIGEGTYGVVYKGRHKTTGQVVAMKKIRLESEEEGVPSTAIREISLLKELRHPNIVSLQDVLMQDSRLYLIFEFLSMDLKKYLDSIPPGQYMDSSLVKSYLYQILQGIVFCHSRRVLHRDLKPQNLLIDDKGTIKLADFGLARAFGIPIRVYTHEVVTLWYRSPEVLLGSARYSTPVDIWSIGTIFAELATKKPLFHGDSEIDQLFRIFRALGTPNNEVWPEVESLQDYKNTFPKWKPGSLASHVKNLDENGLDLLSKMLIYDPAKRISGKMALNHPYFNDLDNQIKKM
Sequence (P14635 whole entry, further chain): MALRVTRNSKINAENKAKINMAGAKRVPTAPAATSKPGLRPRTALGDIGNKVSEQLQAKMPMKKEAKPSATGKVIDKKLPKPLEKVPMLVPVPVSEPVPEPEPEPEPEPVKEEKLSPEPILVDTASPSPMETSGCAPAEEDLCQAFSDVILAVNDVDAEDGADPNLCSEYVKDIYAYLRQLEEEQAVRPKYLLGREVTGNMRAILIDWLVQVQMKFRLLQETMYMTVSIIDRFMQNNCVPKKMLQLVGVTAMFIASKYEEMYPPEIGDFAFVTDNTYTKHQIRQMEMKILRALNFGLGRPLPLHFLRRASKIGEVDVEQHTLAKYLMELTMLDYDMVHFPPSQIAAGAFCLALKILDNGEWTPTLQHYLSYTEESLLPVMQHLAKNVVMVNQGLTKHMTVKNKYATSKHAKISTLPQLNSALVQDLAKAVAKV
experimentNotes: Inhibition of CDK1/cyclin B (unknown origin) using histone H1 as substrate after 60 mins by scintillation counting analysis in presence of [r-33P]ATP
measuredEndpoint: IC50 (nM)

• CC1(C)CCCC(n2c3cnccc3c3cnc(Nc4ccc(N5CCNCC5)cn4)nc32)C1 (stereo not drawn) = 2960
• COc1nc(Nc2ncc3c4ccncc4n([C@H]4CC[C@H](C)CC4)c3n2)ccc1N1CCC(N(C)C)CC1 = 790
• CC1CCC(n2c3cnccc3c3cnc(Nc4ccc(N5CCNCC5)cn4)nc32)CC1 (mixture of isomers) = 5200
• c1cc2c3cnc(Nc4ccc(N5CCNCC5)cn4)nc3n(C3CCCC3)c2nn1 = 4780
• C[C@H]1CC[C@H](n2c3cnccc3c3cnc(Nc4ccc(N5CCNCC5)cn4)nc32)CC1 = 2660
• COc1nc(Nc2ncc3c4ccncc4n([C@H]4CC[C@H](C)CC4)c3n2)ccc1N1CCC2(CCC(=O)N2)CC1 = 1060
• Fc1nccc2c3cnc(Nc4ccc(N5CCNCC5)cn4)nc3n(C3CCCC3)c12 = 7560
• C[C@H]1CC[C@H](n2c3cnccc3c3cnc(Nc4ccc(N5CCC6(CC5)CCS(=O)(=O)C6)nn4)nc32)CC1 = 1630

----------
Listed molecules paired with reported pIC50
experimentNotes: Antiproliferative activity against Rb-negative human MDA-MB-436 cells assessed as incorporation of [3H]thymidine into DNA after 72 hrs by beta-plate counting analysis
Assay type: functional
pIC50: −log10 of the molar value.
measuredEndpoint: pIC50

• Clc1nccc2c3cnc(Nc4ccc(N5CCNCC5)cn4)nc3n(C3CCCC3)c12 = 5.68
• C[C@H]1CC[C@H](n2c3cnccc3c3cnc(Nc4ccc(N5CCC6(CC5)CCS(=O)(=O)C6)nn4)nc32)CC1 = 5.00
• N#Cc1nccc2c3cnc(Nc4ccc(N5CCNCC5)cn4)nc3n(C3CCCC3)c12 = 5.86
• CN(C)C1CCN(c2ccc(Nc3ncc4c5ccncc5n([C@H]5CC[C@H](C)CC5)c4n3)nc2)CC1 = 5.90
• O=c1[nH]ccc2c3cnc(Nc4ccc(N5CCNCC5)cn4)nc3n(C3CCCC3)c12 = 5.68
• C[C@H]1CC[C@H](n2c3cnccc3c3cnc(Nc4ccc(N5CCNCC5)nc4)nc32)CC1 = 7.42
• C[C@H]1CC[C@H](n2c3cnccc3c3cnc(Nc4ccc(N5CCC6(CCC(=O)N6)CC5)cn4)nc32)CC1 = 5.14
• CN(C)C1CCN(c2ccc(Nc3ncc4c5ccncc5n([C@H]5CC[C@H](C)CC5)c4n3)nn2)CC1 = 5.67
• c1cc2c3cnc(Nc4ccc(N5CCNCC5)cn4)nc3n(C3CCCC3)c2nn1 = 5.15
• C[C@H]1CC[C@H](n2c3cnccc3c3cnc(Nc4ccc5c(n4)CCN(C(=O)CO)C5)nc32)CC1 = 5.42
• C[C@H]1CC[C@H](n2c3cnccc3c3cnc(Nc4ccc(N5CCN(C(=O)CO)CC5)nn4)nc32)CC1 = 5.92
• O[C@H]1CC[C@H](n2c3cnccc3c3cnc(Nc4ccc(N5CCNCC5)cn4)nc32)CC1 = 5.58
• CC1CCC(n2c3cnccc3c3cnc(Nc4ccc(N5CCNCC5)cn4)nc32)CC1 (mixture of isomers) = 5.99
• CS(=O)(=O)CC1CCN(c2ccc(Nc3ncc4c5ccncc5n([C@H]5CC[C@H](C)CC5)c4n3)nn2)CC1 = 5.00
• CC1(C)CCC(n2c3cnccc3c3cnc(Nc4ccc(N5CCNCC5)cn4)nc32)CC1 = 5.70
• CC1(C)CCCC(n2c3cnccc3c3cnc(Nc4ccc(N5CCNCC5)cn4)nc32)C1 (stereo not drawn) = 5.79
• CN(C)C1CCN(c2ccc(Nc3ncc4c5ccncc5n([C@H]5CC[C@H](C)CC5)c4n3)nc2F)CC1 = 5.83
• C[C@H]1CC[C@H](n2c3cnccc3c3cnc(Nc4ccc(N5CCNCC5)nn4)nc32)CC1 = 6.00
• c1cc2c3cnc(Nc4ccc(N5CCNCC5)cn4)nc3n(C3CCCCC3)c2cn1 = 6.27
• COc1nc(Nc2ncc3c4ccncc4n([C@H]4CC[C@H](C)CC4)c3n2)ccc1N1CCC2(CCC(=O)N2)CC1 = 5.12
• C[C@@H](CO)n1c2cnccc2c2cnc(Nc3ccc(N4CCNCC4)cn3)nc21 = 4.52
• COc1nc(Nc2ncc3c4ccncc4n([C@H]4CC[C@H](C)CC4)c3n2)ccc1N1CCC(N(C)C)CC1 = 5.95
• c1cc2c3cnc(Nc4ccc(N5CCNCC5)cn4)nc3n(C3CCCC3)c2cn1 = 5.75
• C[C@@H](O)CN(C)C1CCN(c2ccc(Nc3ncc4c5ccncc5n([C@H]5CC[C@H](C)CC5)c4n3)nn2)CC1 = 6.04
• Fc1nccc2c3cnc(Nc4ccc(N5CCNCC5)cn4)nc3n(C3CCCC3)c12 = 5.58
• C[C@H]1CC[C@H](n2c3cnccc3c3cnc(Nc4ccc(N5CCC(N)CC5)cn4)nc32)CC1 = 5.92
• C[C@H]1CC[C@H](n2c3cnccc3c3cnc(Nc4ccc(N5CCNCC5)cn4)nc32)CC1 = 5.92
• Cc1nccc2c3cnc(Nc4ccc(N5CCNCC5)cn4)nc3n(C3CCCC3)c12 = 5.47

----------
subjectOfTest: Cyclin-dependent kinase 4/cyclin D1 (Homo sapiens)
Sequence (P11802 whole entry): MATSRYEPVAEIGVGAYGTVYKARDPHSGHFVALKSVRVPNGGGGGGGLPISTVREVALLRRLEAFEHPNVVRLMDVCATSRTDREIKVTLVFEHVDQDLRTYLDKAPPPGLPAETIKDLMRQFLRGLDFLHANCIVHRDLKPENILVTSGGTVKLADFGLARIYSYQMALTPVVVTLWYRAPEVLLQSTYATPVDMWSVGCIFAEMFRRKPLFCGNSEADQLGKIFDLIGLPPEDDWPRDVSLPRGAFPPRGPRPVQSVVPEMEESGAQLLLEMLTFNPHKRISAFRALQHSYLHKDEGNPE
Sequence (P24385 whole entry, further chain): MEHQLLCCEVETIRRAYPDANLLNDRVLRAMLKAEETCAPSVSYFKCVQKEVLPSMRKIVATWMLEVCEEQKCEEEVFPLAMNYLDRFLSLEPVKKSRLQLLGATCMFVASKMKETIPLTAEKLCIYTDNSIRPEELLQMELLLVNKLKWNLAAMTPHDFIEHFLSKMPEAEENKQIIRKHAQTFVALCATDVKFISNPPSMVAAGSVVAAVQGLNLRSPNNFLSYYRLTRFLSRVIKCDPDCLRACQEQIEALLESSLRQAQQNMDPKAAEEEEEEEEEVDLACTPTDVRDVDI
experimentNotes: Inhibition of CDK4/cyclin D1 (unknown origin) using Rb as substrate after 60 mins by scintillation counting analysis in presence of [r-33P]ATP
measuredEndpoint: IC50 (nM)

* C[C@H]1CC[C@H](n2c3cnccc3c3cnc(Nc4ccc(N5CCC(N)CC5)cn4)nc32)CC1 | 2
* CN(C)C1CCN(c2ccc(Nc3ncc4c5ccncc5n([C@H]5CC[C@H](C)CC5)c4n3)nc2F)CC1 | 1
* c1cc2c3cnc(Nc4ccc(N5CCNCC5)cn4)nc3n(C3CCCC3)c2nn1 | 51
* C[C@H]1CC[C@H](n2c3cnccc3c3cnc(Nc4ccc(N5CCC6(CCC(=O)N6)CC5)cn4)nc32)CC1 | 3
* C[C@H]1CC[C@H](n2c3cnccc3c3cnc(Nc4ccc(N5CCNCC5)nn4)nc32)CC1 | 2
* COc1nc(Nc2ncc3c4ccncc4n([C@H]4CC[C@H](C)CC4)c3n2)ccc1N1CCC2(CCC(=O)N2)CC1 | 13
* Fc1nccc2c3cnc(Nc4ccc(N5CCNCC5)cn4)nc3n(C3CCCC3)c12 | 3
* O=c1[nH]ccc2c3cnc(Nc4ccc(N5CCNCC5)cn4)nc3n(C3CCCC3)c12 | 5
* N#Cc1nccc2c3cnc(Nc4ccc(N5CCNCC5)cn4)nc3n(C3CCCC3)c12 | 27
* c1cc2c3cnc(Nc4ccc(N5CCNCC5)cn4)nc3n(C3CCCCC3)c2cn1 | 5
* Clc1nccc2c3cnc(Nc4ccc(N5CCNCC5)cn4)nc3n(C3CCCC3)c12 | 4
* COc1nc(Nc2ncc3c4ccncc4n([C@H]4CC[C@H](C)CC4)c3n2)ccc1N1CCC(N(C)C)CC1 | 3
* Cc1nccc2c3cnc(Nc4ccc(N5CCNCC5)cn4)nc3n(C3CCCC3)c12 | 20
* O[C@H]1CC[C@H](n2c3cnccc3c3cnc(Nc4ccc(N5CCNCC5)cn4)nc32)CC1 | 3
* C[C@H]1CC[C@H](n2c3cnccc3c3cnc(Nc4ccc5c(n4)CCN(C(=O)CO)C5)nc32)CC1 | 3
* C[C@@H](CO)n1c2cnccc2c2cnc(Nc3ccc(N4CCNCC4)cn3)nc21 | 40
* CN(C)C1CCN(c2ccc(Nc3ncc4c5ccncc5n([C@H]5CC[C@H](C)CC5)c4n3)nc2)CC1 | 2
* CS(=O)(=O)CC1CCN(c2ccc(Nc3ncc4c5ccncc5n([C@H]5CC[C@H](C)CC5)c4n3)nn2)CC1 | 9

----------
subjectOfTest: UniProt P08684
Sequence (P08684 whole entry): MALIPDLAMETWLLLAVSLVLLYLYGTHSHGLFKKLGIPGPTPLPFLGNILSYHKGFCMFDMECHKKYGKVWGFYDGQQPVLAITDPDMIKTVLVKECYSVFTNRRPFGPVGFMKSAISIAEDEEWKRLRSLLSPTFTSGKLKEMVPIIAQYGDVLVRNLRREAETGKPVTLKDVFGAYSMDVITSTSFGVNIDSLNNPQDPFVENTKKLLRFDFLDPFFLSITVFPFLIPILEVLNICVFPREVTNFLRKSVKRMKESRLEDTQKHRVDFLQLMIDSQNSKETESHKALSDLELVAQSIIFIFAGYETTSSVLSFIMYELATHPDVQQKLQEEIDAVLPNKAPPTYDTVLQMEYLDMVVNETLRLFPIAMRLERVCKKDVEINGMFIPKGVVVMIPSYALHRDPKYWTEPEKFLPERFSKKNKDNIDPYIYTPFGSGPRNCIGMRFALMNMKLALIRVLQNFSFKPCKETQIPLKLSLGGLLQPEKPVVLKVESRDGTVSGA
experimentNotes: Inhibition of CYP3A4 (unknown origin) at 3 uM
Format: ADME
Listed molecules paired with reported inhibition at 3 µM
measuredEndpoint: inhibition at 3 µM (%)

* C[C@H]1CC[C@H](n2c3cnccc3c3cnc(Nc4ccc(N5CCNCC5)cn4)nc32)CC1 | 20
* c1cc2c3cnc(Nc4ccc(N5CCNCC5)cn4)nc3n(C3CCCC3)c2cn1 | 90
* CC1(C)CCC(n2c3cnccc3c3cnc(Nc4ccc(N5CCNCC5)cn4)nc32)CC1 | 51
* O=c1[nH]ccc2c3cnc(Nc4ccc(N5CCNCC5)cn4)nc3n(C3CCCC3)c12 | 18

----------
experimentNotes: Oral bioavailability in dog
Assay type: ADME, organism-based, Canis lupus familiaris
testSettings: in vivo
measuredEndpoint: bioavailability (%)

* C[C@H]1CC[C@H](n2c3cnccc3c3cnc(Nc4ccc5c(n4)CCN(C(=O)CO)C5)nc32)CC1 | 100
